Please respond with reported higher affinity for DFHBI than DFHBI-1T for every item in the list.
Protocol: In vitro chromophore titration with DFHBI (fluorescence, single-binding site isotherm fit)

Asked: Which higher affinity for DFHBI than DFHBI-1T value is on record for mFAP2: previously reported mini-fluorescence-activating protein, initial design (protein) SRAAQLLPGTWQVTMTNEDGQTSQGQMHFQPRSPYTMDVVAQGTISDGRPISGYGKVTVKTPDTLDVDITYPSLGNIKAQGQITMDSPTQFKFDATTKGAGNFTGRLTGTLQRQE ?
Given back: ~ 30 fold

Asked: Also, mFAP10: variant from the IN2 combinatorial library (protein) SRAAQLLPGTWQATFTNEDGQTSQGQIHFQPRSPYTMDIVAQGTISDGRPIVGYGKATVKTPDTLDIDITYPSLGNIKAQGQITMDSPTQFKFDATTKGENDFHGRLTGTLQRQE please.
Given back: ~ 2.6 fold

Asked: Also, mFAP2a: mFAP2 variant, "a" for affinity (protein) SRAAQLLPGTWQATFTNEDGQTSQGQWHFQPRSPYTMDIVAQGTISDGRPIVGYGKATVKTPDTLDIDITYPSLGNIKAQGQITMDSPTQFKWDATTKGENDFHGRLTGTLQRQE please.
Given back: ~ 39 fold

Asked: Also, mFAP2b: mFAP2.5 with V67I, "b" for bright (protein) SRAAQLLPGTWQVTMTNEDGQTSQGQWHFQPRSPYTMDIVAQGTISDGRPIVGYGKATVKTPDTLDIDITYPSLGNIKAQGQITMDSPTQFKWDATTKGENDFHGRLTGTLQRQE please.
Given back: ~ 6.1 fold
